assay-details: PK study in ICR mice
Type: in vivo, mouse
condition: plasma, route and dose not given
Please assign 0 whenever AUC is at or above 50000 ng·h/mL, and 1 whenever it is below.

compound	label-value
CC1(C)Cn2c(cc3c(NC(=O)c4ccc(NS(=O)(=O)CCO)cc4N4CCC5(CC4)CC5)ccc(OC(F)F)c32)CO1	0
O=C(Nc1cccc2c1cc1n2CC2CCC1O2)c1ccc(NS(=O)(=O)CCO)cc1N1CCC(=C(F)F)CC1 (centres unmarked)	1
O=C(Nc1cccc2c1cc1n2CCOC1)c1ccc(NS(=O)(=O)CCO)cc1N1CCC(=C(F)F)CC1	1
O=C(Nc1ccc(F)c2c1nc1n2CCOC1)c1ccc(NS(=O)(=O)CCO)cc1N1CCC(=C(F)F)CC1	1
COc1ccc(NC(=O)c2ccc(NS(=O)(=O)CCO)cc2N2CCC(=C(F)F)CC2)c2cc3n(c12)CCOC3	1
N#Cc1ccc(NC(=O)c2ccc(NS(=O)(=O)CCO)cc2N2CCC3(CC2)CC3)c2cc3n(c12)CCC(F)(F)C3	1
COc1ccc(NC(=O)c2ccc(NS(=O)(=O)CCO)cc2N2CCC(=C(F)F)CC2)c2cc3n(c12)CC(C)(C)OC3	0
N#Cc1ccc(NC(=O)c2ccc(NS(=O)(=O)CCO)cc2N2CCC(=C(F)F)CC2)c2cc3n(c12)CCC(F)(F)C3	1
